- assay_name: Cell Proliferation Assay Versus the ED40515 IL2 Dependent ATL cell lines (AID 1053195)
- test_parameters: ED40515 IL2-dependent ATL cells
Activity calls are given as the source filed them. Calls follow the shape of the full dose curve.
Potency for assorted molecules
assay_endpoint: Potency

# molecule, data_value
data = [
    ("CN(C)CCN(C)CCc1ccc(Cl)c(Cl)c1", "16.6 µM (active)"),
    ("CCCCC/C=C\\C/C=C\\C/C=C\\C/C=C\\CCCC(=O)NC1CC1", "16.6 µM (active)"),
    ("O=C(O)C(=O)c1cn(Cc2ccccc2)c2ccc(-c3ccc(OC(F)(F)F)cc3)cc12", "20.9 µM (active)"),
    ("Cc1cc(SCc2sc(-c3ccc(C(F)(F)F)c(F)c3)nc2C)ccc1OCC(=O)O", "18.7 µM (active)"),
    ("CC(C)n1c(C=C[C@H](O)C[C@H](O)CC(=O)O)c(-c2ccc(F)cc2)c2ccccc21", "0.209 µM (active)"),
    ("C[C@@H]1[C@@H](CC(C[C@H]2O[C@@H]3O[C@]4(C)CC[C@@H]5[C@H](C)CC[C@@H]([C@H]2C)[C@@]35OO4)C[S+](=O)([O-])c2ccc(COC(=O)N(C)C)cc2)O[C@@H]2O[C@]3(C)CC[C@H]4[C@H](C)CC[C@@H]1[C@@]24OO3 (some centres not stated)", "0.0166 µM (active)"),
    ("Cn1cc(C2=C(c3cn(C4CCN(Cc5ccccn5)CC4)c4ccccc34)C(=O)NC2=O)c2ccccc21", "14.8 µM (active)"),
]
